Biological target: Histone deacetylase 2 (Homo sapiens)
Experiment: Inhibition of full-length recombinant human C-terminal GST tagged HDAC2 expressed in Sf9 insect cells using aminoluciferin peptide substrate at 100 nM preincubated for 3 hrs followed by substrate addition and measured after 30 mins by HDAC-Glo I/II chemiluminescence assay
Settings: time 3.5 hrs
measurement-kind: inhibition (%)
Answer format: numeric, % implied, no suffix.

Asked: # return recorded inhibition for entry Nc1ccc(-c2ccccc2)cc1NC(=O)CCc1cn(CCc2ccc(C(=O)O)cc2)nn1
Given back: 33

Asked: Look up and report measured inhibition for this entry: Nc1ccc(-c2cccs2)cc1NC(=O)CCc1cn(-c2cccc3ccccc23)nn1
Given back: 0

Asked: Provide measured inhibition value, entry: Nc1ccc(-c2cccs2)cc1NC(=O)c1ccc(-c2cn(CC34CC5CC(CC(C5)C3)C4)nn2)s1
Given back: 0

Asked: Identify measured inhibition associated with Cc1ccc(CCn2cc(CCC(=O)Nc3cc(-c4ccsc4)ccc3N)nn2)cc1
Given back: 24

Asked: Consider the compound Nc1ccc(-c2ccc(F)cc2)cc1NC(=O)c1cn(CCc2ccccc2)nn1 and give its recorded inhibition.
Given back: 17

* * *

Biological target: Histone deacetylase 2 (Homo sapiens)
Experiment: Inhibition of full-length recombinant human C-terminal GST tagged HDAC2 expressed in Sf9 insect cells using aminoluciferin peptide substrate at 100 nM preincubated for 3 hrs followed by substrate addition and measured after 30 mins by HDAC-Glo I/II chemiluminescence assay
Conditions: time 3.5 hrs
measurement-kind: inhibition (%)
Reply numerically in %, unit not repeated.

Asked: Indicate its recorded inhibition; the molecule in question is Nc1ccc(-c2ccc(F)cc2)cc1NC(=O)c1cn(CCCCCCC(=O)O)nn1
Given back: 23

Asked: // Input: Nc1ccc(-c2ccccc2)cc1NC(=O)c1cn(CCc2ccc(C(=O)O)cc2)nn1 . Output its inhibition only.
Given back: 9

Asked: Annotate the molecule Nc1ccc(-c2cccs2)cc1NC(=O)CCc1cn(-c2ccccc2-c2ccccc2)nn1 with its measured inhibition.
Given back: 0

Asked: Determine from records and report inhibition for Nc1ccc(-c2cccnc2)cc1NC(=O)CCc1cn(CCCCCCC(=O)O)nn1
Given back: 0

Asked: Tell me its inhibition given Nc1ccc(-c2cccs2)cc1NC(=O)CCc1cn(Cc2ccc(-c3ccccc3)cc2)nn1 as the entry.
Given back: 0

Asked: Give the reported inhibition for this molecule. Nc1ccc(-c2cccs2)cc1NC(=O)CCc1cn(CCC2CCCCC2)nn1
Given back: 4

Asked: Provide inhibition value for the following molecule: Cc1cccc(C)c1NC(=O)Cn1cc(-c2ccc(C(=O)Nc3cc(-c4cccs4)ccc3N)cc2)nn1
Given back: 52

Asked: Fill in reported inhibition for this entry: Nc1ccc(-c2ccsc2)cc1NC(=O)c1cn(CCc2c[nH]c3ccccc23)nn1
Given back: 6

Asked: # return recorded inhibition for input Nc1ccc(-c2cccs2)cc1NC(=O)c1cn(CCCCC(=O)O)nn1
Given back: 3

Asked: Name the recorded inhibition of the item Nc1ccc(-c2cccs2)cc1NC(=O)c1cccc(-c2cn(Cc3ccc(OC(F)(F)F)cc3)nn2)c1 in your answer.
Given back: 0

Asked: Given the molecule Nc1ccc(-c2cccs2)cc1NC(=O)c1ccc(-c2cn(CCc3ccc(C(F)(F)F)cc3)nn2)s1 , write its reported inhibition.
Given back: 0

Asked: Give the reported value of inhibition for this record: Nc1ccc(-c2cccs2)cc1NC(=O)CCc1cn(CCc2ccsc2)nn1
Given back: 13

Asked: Name the recorded inhibition of the molecule listed here: Cc1ccccc1CCn1cc(C(=O)Nc2cc(-c3cccs3)ccc2N)nn1
Given back: 0

Asked: Give the reported value of inhibition for this record: Nc1ccc(-c2ccsc2)cc1NC(=O)c1cn(Cc2nc3ccccc3[nH]2)nn1
Given back: 25

Asked: Please give the documented inhibition of Nc1ccc(-c2ccc(F)cc2)cc1NC(=O)CCc1cn(CC2CCCCC2)nn1
Given back: 1

Asked: Specify measured inhibition for Nc1ccc(-c2cccs2)cc1NC(=O)CCc1cn(Cc2ccc(C(=O)O)cc2)nn1 .
Given back: 31

Asked: # return recorded inhibition for input Nc1ccc(-c2ccsc2)cc1NC(=O)CCc1cn(CCc2ccccc2Cl)nn1
Given back: 11

Asked: Find the measured inhibition of Nc1ccc(-c2ccc(F)cc2)cc1NC(=O)CCc1cn(Cc2ccc3ccccc3n2)nn1 and report it.
Given back: 26

Asked: Using the record for Nc1ccc(-c2ccccc2)cc1NC(=O)c1cn(CCc2ccc([N+](=O)[O-])cc2)nn1 , state its measured inhibition.
Given back: 0

Asked: Given Nc1ccc(-c2ccccc2)cc1NC(=O)CCc1cn(CCCCCCCC(=O)O)nn1 , respond with its inhibition.
Given back: 0

* * *

Target: Histone deacetylase 2 (Homo sapiens, UniProt Q92769)
Sequence (Q92769 whole entry): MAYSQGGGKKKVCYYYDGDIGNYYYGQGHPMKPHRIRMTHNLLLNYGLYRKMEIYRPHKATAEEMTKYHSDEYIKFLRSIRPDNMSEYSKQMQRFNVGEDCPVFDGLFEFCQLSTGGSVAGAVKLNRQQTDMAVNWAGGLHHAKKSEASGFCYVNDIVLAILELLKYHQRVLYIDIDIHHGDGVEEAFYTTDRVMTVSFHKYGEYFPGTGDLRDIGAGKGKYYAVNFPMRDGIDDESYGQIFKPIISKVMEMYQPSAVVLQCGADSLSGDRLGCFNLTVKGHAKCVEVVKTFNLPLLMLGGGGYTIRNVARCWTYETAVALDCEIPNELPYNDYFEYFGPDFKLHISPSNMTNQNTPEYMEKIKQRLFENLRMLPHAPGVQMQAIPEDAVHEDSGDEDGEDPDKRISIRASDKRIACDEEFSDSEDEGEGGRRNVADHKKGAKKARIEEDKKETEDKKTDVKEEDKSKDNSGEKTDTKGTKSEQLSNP
Assay: Inhibition of full-length recombinant human C-terminal GST tagged HDAC2 expressed in Sf9 insect cells using aminoluciferin peptide substrate at 100 nM preincubated for 3 hrs followed by substrate addition and measured after 30 mins by HDAC-Glo I/II chemiluminescence assay
Conditions: time 3.5 hrs
Answer each item with its documented inhibition.
Give just the numeric value; % need not be written.

Asked: Let me know recorded inhibition for Nc1ccc(-c2cccs2)cc1NC(=O)c1cccc(-c2cn(CC34CC5CC(CC(C5)C3)C4)nn2)c1 , thanks.
Given back: 0

Asked: Name the recorded inhibition of the compound listed here: Nc1ccc(-c2cccs2)cc1NC(=O)CCc1cn(CCc2ccc(C(=O)O)cc2)nn1
Given back: 35

Asked: // Input: Nc1ccc(-c2ccsc2)cc1NC(=O)CCc1cn(-c2ccc(O)cc2)nn1 . Output its inhibition only.
Given back: 16

Asked: Please give measured inhibition of the following entry: Nc1ccc(-c2ccccc2)cc1NC(=O)CCc1cn(CCCCCc2ccccc2)nn1
Given back: 0

Asked: Item Nc1ccc(-c2ccc(F)cc2)cc1NC(=O)CCc1cn(CCc2ccc(C(F)(F)F)cc2)nn1 : provide inhibition
Given back: 1

Asked: Note inhibition for the compound shown: Nc1ccc(-c2ccc(F)cc2)cc1NC(=O)c1cn(Cc2ccc(C(=O)O)cc2)nn1
Given back: 65

Asked: Provide inhibition value for the following compound: Nc1ccc(-c2cccs2)cc1NC(=O)c1ccc(-c2cn(-c3cccc4ccccc34)nn2)s1
Given back: 0

Asked: Note down inhibition recorded for Nc1ccc(-c2ccsc2)cc1NC(=O)CCc1cn(CCC2CCCCC2)nn1
Given back: 0

Asked: Please report the measured inhibition for Nc1ccc(-c2cccs2)cc1NC(=O)c1ccc(-c2cn(CC(=O)Nc3ccc(F)cc3)nn2)s1
Given back: 23

Asked: Report inhibition, nothing else, for this compound: Nc1ccc(-n2cc(C(=O)Nc3cc(-c4ccccc4)ccc3N)nn2)cc1
Given back: 11

Asked: Indicate its recorded inhibition; the compound in question is Nc1ccc(-n2cc(-c3ccc(C(=O)Nc4cc(-c5cccs5)ccc4N)s3)nn2)cc1
Given back: 44

Asked: Fill in inhibition for record Nc1ccc(-c2cccnc2)cc1NC(=O)CCc1cn(CCN2CCOCC2)nn1
Given back: 0

Asked: Return value of inhibition for input Nc1ccc(-c2ccc(F)cc2)cc1NC(=O)CCc1cn(CCc2ccccc2)nn1 , no commentary.
Given back: 37

Asked: Note inhibition for the compound shown: Nc1ccc(-c2ccccc2)cc1NC(=O)c1cn(CC2CCCCC2)nn1
Given back: 0

Asked: Please indicate inhibition recorded for Cc1csc(CCn2cc(CCC(=O)Nc3cc(-c4ccc(F)cc4)ccc3N)nn2)n1
Given back: 37

Asked: // fetch inhibition given entry Nc1ccc(-c2cccnc2)cc1NC(=O)CCc1cn(/C=C/c2ccccc2)nn1
Given back: 7

Asked: Respond only with inhibition recorded for Nc1ccc(-c2ccc(F)cc2)cc1NC(=O)CCc1cn(CCc2ccccc2Cl)nn1
Given back: 4

Asked: Tell me inhibition reported for Nc1ccc(-c2ccccc2)cc1NC(=O)c1cn(CCCCC(=O)O)nn1
Given back: 0

Asked: For the compound Nc1ccc(-c2cccs2)cc1NC(=O)CCc1cn(CCC2CCCC2)nn1 , report inhibition.
Given back: 0

Asked: Give recorded inhibition. Nc1ccc(-c2ccccc2)cc1NC(=O)CCc1cn(-c2ccc(Br)cc2)nn1
Given back: 0

* * *

Target: Histone deacetylase 2 (Homo sapiens)
Conditions: Sf9, time 60.0 min
measurement-kind: Kdiss (s⁻¹)
Report the value in s⁻¹ with no unit label.

Asked: For the compound Nc1ccc(-c2cccs2)cc1NC(=O)c1ccc(-c2cn(CCc3ccccn3)nn2)cc1 , report Kdiss.
Given back: 8.33e-05

Asked: Quickly give me recorded Kdiss for Nc1ccc(-c2cccs2)cc1NC(=O)c1ccc(-c2cn(C[S+]([O-])c3ccccc3)nn2)cc1 (centres undefined)
Given back: 0.000117

Asked: Write down Kdiss measured for item CC(=O)Nc1ccc(C(=O)Nc2cc(-c3cccs3)ccc2N)cc1
Given back: 6.67e-05

Asked: Please supply the value of reported Kdiss for the item Nc1ccccc1NC(=O)c1ccc(CNC(=O)OCc2cccnc2)cc1
Given back: 5e-05

* * *

Target: Histone deacetylase 2 (Homo sapiens, UniProt Q92769)
Test: Inhibition of full-length recombinant human C-terminal GST tagged HDAC2 expressed in Sf9 insect cells using aminoluciferin peptide substrate at 100 nM preincubated for 3 hrs followed by substrate addition and measured after 30 mins by HDAC-Glo I/II chemiluminescence assay
Conditions: time 3.5 hrs
measurement-kind: inhibition
Numeric answer plus unit only.

Asked: Please supply the value of reported inhibition for the item Nc1ccc(-c2ccccc2)cc1NC(=O)CCc1cn(CS(=O)(=O)c2ccccc2)nn1
Given back: 9%

Asked: For the molecule Cc1ccc(-n2cc(CCC(=O)Nc3cc(-c4ccc(F)cc4)ccc3N)nn2)cc1C , give its reported inhibition.
Given back: 0%

Asked: Provide one value: measured inhibition of Cc1ccccc1CCn1cc(-c2cccc(C(=O)Nc3cc(-c4cccs4)ccc3N)c2)nn1
Given back: 0%

Asked: Name the recorded inhibition of the item Nc1ccc(-c2ccc(F)cc2)cc1NC(=O)CCc1cn(-c2cccc3ccccc23)nn1 in your answer.
Given back: 0%

Asked: Tell me measured inhibition for Nc1ccc(-c2ccsc2)cc1NC(=O)c1cn(C[S+]([O-])c2ccccc2)nn1 (centres undefined) please.
Given back: 10%

Asked: In one line, give reported inhibition of the entry Nc1ccc(-c2cccs2)cc1NC(=O)c1cccc(-c2cn(CCc3ccccc3C(F)(F)F)nn2)c1 .
Given back: 2%

Asked: Respond only with inhibition recorded for CCc1ccc(Cn2cc(CCC(=O)Nc3cc(-c4ccsc4)ccc3N)nn2)cc1
Given back: 6%

Asked: Please report inhibition for the following molecule: Nc1ccc(-c2ccc(F)cc2)cc1NC(=O)c1cn(CCc2c[nH]c3ccccc23)nn1
Given back: 5%

Asked: State, in one line, measured inhibition of Cc1csc(CCn2cc(-c3ccc(C(=O)Nc4cc(-c5cccs5)ccc4N)s3)nn2)n1
Given back: 74%

Asked: State its inhibition: Nc1ccc(-c2ccsc2)cc1NC(=O)c1cn(CCc2ccc(C(F)(F)F)cc2)nn1
Given back: 0%

Asked: Query inhibition for Nc1ccc(-c2cccs2)cc1NC(=O)c1ccc(-c2cn(CCc3ccc(Cl)cc3)nn2)cc1
Given back: 18%

Asked: Recall and state the measured inhibition for COc1ccc(Cn2cc(-c3ccc(C(=O)Nc4cc(-c5cccs5)ccc4N)cc3)nn2)cc1 .
Given back: 4%

Asked: Report inhibition for Nc1ccc(-c2ccc(F)cc2)cc1NC(=O)CCc1cn(CCCCC(=O)O)nn1
Given back: 0%

Asked: Respond only with inhibition recorded for Nc1ccc(-c2ccccc2)cc1NC(=O)CCc1cn(CCc2ccccn2)nn1
Given back: 0%

Asked: Read off the recorded inhibition for Nc1ccc(-c2cccs2)cc1NC(=O)c1ccc(-c2cn(-c3ccccc3-c3ccccc3)nn2)cc1
Given back: 0%

Asked: Answer with the recorded inhibition of Nc1ccc(-c2ccccc2)cc1NC(=O)CCc1cn(CCCCC(=O)O)nn1 only.
Given back: 0%

Asked: Tell us which inhibition value is on record for Nc1ccc(-c2cccnc2)cc1NC(=O)CCc1cn(CC(=O)Nc2ccc(F)cc2)nn1
Given back: 0%

Asked: Query inhibition for Nc1ccc(-c2ccccc2)cc1NC(=O)c1cn(Cc2ccc(Oc3ccccc3)cc2)nn1
Given back: 0%

Asked: Give the reported value of inhibition for this record: Nc1ccc(-c2ccsc2)cc1NC(=O)CCc1cn(-c2ccc(I)cc2)nn1
Given back: 0%
